The values you see were collected from the supplement of paper PMC7125110.

B1: glmS ribozyme (parent)
chain: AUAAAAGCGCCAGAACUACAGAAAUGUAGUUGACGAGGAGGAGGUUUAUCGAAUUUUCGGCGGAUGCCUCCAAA

Variants of: B1
EXPERIMENT SUMMARY: self-cleavage kobs at 40 uM GlcN6P; higher = faster cleavage; RNA array
CONDITION DETAILS: with glucosamine-6-phosphate
Variants at the floor of the assay were thinned out.

# POLYMER SEQUENCE, self-cleavage kobs at 40 uM GlcN6P
measured = [
    ("AUAAAAGCGCCGCAACUACAGAAAUGUAGUUUACGAGGAAGAGGUUUAUCGAAUUUUCGGCGGCUGCCUCCAAA [A12G G13C G32U G40A A64C]", "< 1e-05 s⁻¹"),
    ("AUAAAAGCGCCACAACUACAGAAAUGUAGCUGACGGGGAGCAGGUUUAUCGAAUUUUCGGCGGAUGCCUACAAA [G13C U30C A36G G41C C70A]", "< 1e-05 s⁻¹"),
    ("AUAAAAGCGCCAGAACUACAGAAAUGUAGUUACCGAGGAGGAGGUUUAUCGAAUUUUCGGCGGAUGCGUCGAAA [G32A A33C C68G C71G]", "5.72e-05 s⁻¹"),
    ("AUAAAAGCGCCAGAACUACAGAAAUGUAGUUGACGAGGGGGAGGUUUAUCGAAUUUUCGGCGUAUACCUCCAAA [A39G G63U G66A]", "< 1e-05 s⁻¹"),
    ("AUAAAAGCGCCAGAACUACAGAAAUGUAGUUGACGAGGGGGAGGUUUAUCGAAUUGUCGGCGGAUGCCUCCAAA [A39G U56G]", "0.00055 s⁻¹"),
    ("AUAAAAGCGCCAGAACUACAGAAAUGUAGUUGACGAGGAGGAGGUUUAUCGAAUUUUCGGCGGAUGCCUCUAAA [C71U]", "0.00128 s⁻¹"),
    ("AUAAAAGCGCCAGAACUACAGAAAUGUAGUUGACGAGGAGGAGGUUUAUCGAGUUUUCGGCGGAUGGCUCCAAA [A53G C67G]", "0.000155 s⁻¹"),
    ("AUAAAAGCGCCAGAACUACAGAAAUGUAGUUGACGAGGAGGAGGUUUAUCGAAUUUUCCGCGGAUGGCUGCAAA [G59C C67G C70G]", "< 1e-05 s⁻¹"),
    ("AUAAAAGCUCCAGAACUACAGAAAUGUAGUUGUCGAGGAGGAGGUUUAUCGUAUUGUCGGCGGAUGCCUCCAAA [G9U A33U A52U U56G]", "< 1e-05 s⁻¹"),
    ("AUAAAAGGGCCAGAACUACAGAAAUGUAGUUGAAGAGGAGGAGGUUUAUCGACUUUUCGCCGGAUGCCUCCAAA [C8G C34A A53C G60C]", "< 1e-05 s⁻¹"),
    ("AUAAAAGCGCCAGAACUACAGAAAUGUAGUUGACGAGGACGACGUUUAUCGAAUUUUCGGCGGAUGCCUCCAAA [G40C G43C]", "< 1e-05 s⁻¹"),
    ("AUAAAAGCGCCCGAACUACAGAAAUGUAGUUGACGAGGAGGAGGAUUAUCGAAUUUUCGGCGGAUGCCUCCAAA [A12C U45A]", "0.000958 s⁻¹"),
    ("AUAAAAGCGCCAGAACUACAGAAAUGUAGUUGUCGAGGAGGAGGUUUAUCGAAUUUUCGGUGGAUGCCUGCAAA [A33U C61U C70G]", "< 1e-05 s⁻¹"),
    ("AUAAAAGCGCCAGAACUACAGAAAUGUAGUUGACGAGGAGGAGGUUUAUCGAAUUUUCGCCGGAUUCCUCCAAA [G60C G66U]", "< 1e-05 s⁻¹"),
    ("AUAAAAGCGCCAGAACUACAGAAAUGUAGUUGACGAGGAGGAGGUUUAUCGAAUUUUCGGCGGAUGACUCUAAA [C67A C71U]", "7.16e-05 s⁻¹"),
    ("AUAAAAGCGCCAGAACUACAGAAAUGUAGUUGACGAGGAGUCGGUUUAUCGAAUUUUCGGCGGAUGCCUCCAAA [G41U A42C]", "< 1e-05 s⁻¹"),
    ("AUAAAAGCGCCAGAACUACAGAAAUGUAGUUGACGAGGAGGAGGUGUAUCGAAUUUUCGGGGGAUGCCUCCAAA [U46G C61G]", "< 1e-05 s⁻¹"),
    ("AUAAAAGCGCCAGAACUACAGAAAUGUAGUUGACGAGGAGGAGAUUCAUCGAAUUUUCGGCGGAUGCCUCCAAA [G44A U47C]", "< 1e-05 s⁻¹"),
    ("AUAAAAGCGCCAGAACUACAGAAAUGUAGAUGACGAGGAGGAGGUUUAUCGAAUUUUCAGCGGAUGCCUCCAAA [U30A G59A]", "< 1e-05 s⁻¹"),
    ("AUAAAAGCGCCAGAACUACAGAAAUGUAGUUUACGCGGAGGAGGUUUAUCGAAUUUUCGGCGGAUGCAUCCAAA [G32U A36C C68A]", "< 1e-05 s⁻¹"),
    ("AUAAAAGCGCACGAACUACAGAAAUGUAGUUGACGAGUAGGAGGUUUAUCGAAUUUUCGGCGGAUGCCACCAAA [C11A A12C G38U U69A]", "0.000405 s⁻¹"),
    ("AUAAAAGCGCCAGAAUUACAGAAAUGUAGUUGACGAGGAGGUGGCUUAUCGAAUUUUCAGCGGAUGCUUCCAAA [C16U A42U U45C G59A C68U]", "< 1e-05 s⁻¹"),
]
